The measurements presented in this section are drawn from ChEMBL document CHEMBL2203073.

test: Selectivity index, ratio of IC50 for TCPTP to PTP1B
Below, each entry is listed alongside its reported Ratio IC50.
parameter.measured: Ratio IC50

[[record]]
structure_string = "C[C@H](CCC(=O)O)[C@H]1CC[C@H]2[C@@H]3CC[C@@H]4C[C@H](O)CC[C@]4(C)[C@H]3CC[C@]12C"
relation_operator = "="
recorded_number = 1.6

[[record]]
structure_string = "CCOC(=O)CC[C@@H](C)[C@H]1CC[C@H]2[C@@H]3CC=C4C(C)(C)c5[nH]ncc5C[C@]4(C)[C@H]3CC[C@]12C"
relation_operator = ">"
recorded_number = 2.1

[[record]]
structure_string = "C[C@H](CCC(=O)O)[C@H]1CC[C@H]2[C@@H]3CC=C4C(C)(C)c5c(cnn5-c5ccccc5)C[C@]4(C)[C@H]3CC[C@]12C"
relation_operator = "="
recorded_number = 14.1

[[record]]
structure_string = "C[C@H](CCC(=O)O)[C@H]1CC[C@H]2[C@@H]3CC=C4C(C)(C)c5[nH]ncc5C[C@]4(C)[C@H]3CC[C@]12C"
relation_operator = "="
recorded_number = 4.7

[[record]]
structure_string = "C[C@H](CCC(=O)O)[C@H]1CC[C@H]2[C@@H]3CC=C4C(C)(C)c5nc(N)sc5C[C@]4(C)[C@H]3CC[C@]12C"
relation_operator = "="
recorded_number = 2

[[record]]
structure_string = "C[C@H](CCC(=O)O)[C@H]1CC[C@H]2[C@@H]3CC=C4C(C)(C)c5oncc5C[C@]4(C)[C@H]3CC[C@]12C"
relation_operator = "="
recorded_number = 5.1

[[record]]
structure_string = "Cc1ncc2c(n1)C(C)(C)C1=CC[C@H]3[C@@H]4CC[C@H]([C@H](C)CCC(=O)O)[C@@]4(C)CC[C@@H]3[C@@]1(C)C2"
relation_operator = "="
recorded_number = 1.2

[[record]]
structure_string = "C[C@H](CCC(=O)O)[C@H]1CC[C@H]2[C@@H]3CC=C4C(C)(C)c5ncncc5C[C@]4(C)[C@H]3CC[C@]12C"
relation_operator = "="
recorded_number = 0.9

[[record]]
structure_string = "C[C@H](CCC(=O)O)[C@H]1CC[C@H]2[C@@H]3CC=C4C(C)(C)c5nccnc5C[C@]4(C)[C@H]3CC[C@]12C"
relation_operator = "="
recorded_number = 2.8

